target: human GLP-1 receptor (human, UniProt P43220); assay: cell-based or functional assay
No end group written: not given here.
Measurement Label: GLP-1 Receptor Activation (relative to GLP-1(7-37)OH) (relative potency)

[[record]]
binder = "HVEGTFTSDVSSYLEGQAAKEFIAWLVKHRG [Val^8-His^35-GLP-1(7-37)OH]"
numeric_result = 0.41

[[record]]
binder = "HVEGTFTSDVSSYLEGQAAKEFIAWLKNGRG [Val^8-Lys^33-Asn^34-GLP-1(7-37)OH]"
numeric_result = 0.09

[[record]]
binder = "HVEGTFTSDVSSYLEGQAAKEFIAWLVKGGP-NH2 [Val^8-Gly^36-Pro^37-GLP-1(7-37)NH2]"
numeric_result = 0.53

[[record]]
binder = "HAEGTFTSDVSSYLEQQAAKEFIAWLVKGRG [Gln^22-GLP-1(7-37)OH]"
numeric_result = 0.42

[[record]]
binder = "HVEGTFTSDVSSYLEGQAAKEFIAWLVKGRH [Val^8-His^37-GLP-1(7-37)OH]"
numeric_result = 0.33

[[record]]
binder = "HVEGTFTSDVSSYLEGQAAKEFIAWLVGKRG [Val^8-Gly^34-Lys^35-GLP-1(7-37)OH]"
numeric_result = 0.34

[[record]]
binder = "HVEGTFTSDVSSYLEGQKAKEFIAWLVKGRG [Val^8-Lys^24-GLP-1(7-37)OH]"
numeric_result = 0.02

[[record]]
binder = "HVEGTFTSDVSSYLEGQAAKEFIHWLVKGRG [Val^8-His^30-GLP-1(7-37)OH]"
numeric_result = 0.19

[[record]]
binder = "HVEGTFTSDVSSYKEGQAAKEFIAWLVKGRG [Val^8-Lys^20-GLP-1(7-37)OH]"
numeric_result = 0.33

[[record]]
binder = "HVEGTFTSDASSYLEGQAAKEFIAWLVKGRG [Val^8-Ala^16-GLP-1(7-37)OH]"
numeric_result = 0.112

[[record]]
binder = "HVEGTFTSDVSSYLEGKAAKEFIAWLVKGRG [Val^8-Lys^23-GLP-1(7-37)OH]"
numeric_result = 0.18

[[record]]
binder = "HVEGTFTSDVSSYLEGQAAKEFIAWLEKGRG [Val^8-Glu^33-GLP-1(7-37)OH]"
numeric_result = 0.039

[[record]]
binder = "HVEGTFTSDVSSYLEGQAAKEFIAWLAKGRG [Val^8-Ala^33-GLP-1(7-37)OH]"
numeric_result = 0.1

[[record]]
binder = "HVEGTFTSDVSSYLEDQAAKEFIAWLVKGRG [Val^8-Asp^22-GLP-1(7-37)OH]"
numeric_result = 0.4

[[record]]
binder = "HVEGTFTSDYSSYLEGQAAKEFIAWLVKGRG [Val^8-Tyr^16-GLP-1(7-37)OH]"
numeric_result = 1.18

[[record]]
binder = "HVEGTFTSDVSSYLEKQAAKEFIEWLVKGRG [Val^8-Lys^22-Glu^30-GLP-1(7-37)OH]"
numeric_result = 0.37

[[record]]
binder = "HVEGTFTSDVSSYLEGQAAKEFIAWLVEGRG [Val^8-Glu^34-GLP-1(7-37)OH]"
numeric_result = 0.17

[[record]]
binder = "HGEGHFTSDVSSYLEGQAAKEFIAWLVKGRG [Gly^8-His^11-GLP-1(7-37)OH]"
numeric_result = 0.282

[[record]]
binder = "HVEGTFTSDVSSYLEGQAAKHFIAWLVKGRG [Val^8-His^27-GLP-1(7-37)OH]"
numeric_result = 0.37

[[record]]
binder = "HVEGTFTSDVSSYLEKQAAKEFIAWLVKGR-NH2 [Val^8-Lys^22-GLP-1(7-36)NH2]"
numeric_result = 0.53

[[record]]
binder = "HVEGTFTSDVSSYLEGQAAKEFIAWLVKPRG [Val^8-Pro^35-GLP-1(7-37)OH]"
numeric_result = 0.094

[[record]]
binder = "HVEGTFTSDVSSYLEPQAAKEFIAWLVKGRG [Val^8-Pro^22-GLP-1(7-37)OH]"
numeric_result = 0.01

[[record]]
binder = "HVEGTFTSDVSSYLEGQAAKEFIAWLVKERG [Val^8-Glu^35-GLP-1(7-37)OH]"
numeric_result = 0.15

[[record]]
binder = "HVEGTFTSDESSYLEGQAAKEFIAWLVKGRG [Val^8-Glu^16-GLP-1(7-37)OH]"
numeric_result = 0.047

[[record]]
binder = "HVEGTFTSDVSSYLEKQAAKEFIAWLVKGRG [Val^8-Lys^22-GLP-1(7-37)OH]"
numeric_result = 0.58

[[record]]
binder = "HVEGTFTSDVSSYLEGQAAKEFIAWLKVGRG [Val^8-Lys^33-Val^34-GLP-1(7-37)OH]"
numeric_result = 0.08


Reference source: patent US20040235710A1
